test: Ratio of Drug level in healthy human lung epithelial lining fluid to drug level in healthy human plasma at 400 mg, po every 12 hrs for 7 days measured after 5 hrs of last dose; assay type: ADME, organism-based
Endpoint Name: Kp at 5 h
Respond with the number and no other words.

Entry under test: CC[C@@H]([C@H](C)O)n1ncn(-c2ccc(N3CCN(c4ccc(OC[C@@H]5CO[C@@](Cn6cncn6)(c6ccc(F)cc6F)C5)cc4)CC3)cc2)c1=O [POSACONAZOLE] . Its Kp at 5 h was 0.75

---

experiment: Drug level in healthy human plasma at 400 mg, po every 12 hrs for 7 days measured after 24 hrs of last dose; type: ADME, organism-based; settings: read-out: Drug uptake
Endpoint Name: concentration at 24 h (ng/mL)
Field: numeric (ng/mL). Do not append units.

// field: concentration at 24 h; key: CC[C@@H]([C@H](C)O)n1ncn(-c2ccc(N3CCN(c4ccc(OC[C@@H]5CO[C@@](Cn6cncn6)(c6ccc(F)cc6F)C5)cc4)CC3)cc2)c1=O [POSACONAZOLE] ; value = 1280

---

experiment: Drug level in healthy human lung epithelial lining fluid at 400 mg, po every 12 hrs for 7 days measured after 12 hrs of last dose; assay type: ADME, organism-based; conditions: read-out: Drug uptake
Endpoint Name: concentration at 12 h (ng/mL)
Kindly provide the numeric value in ng/mL only, without the unit symbol.

Data point: CC[C@@H]([C@H](C)O)n1ncn(-c2ccc(N3CCN(c4ccc(OC[C@@H]5CO[C@@](Cn6cncn6)(c6ccc(F)cc6F)C5)cc4)CC3)cc2)c1=O [POSACONAZOLE] ; concentration at 12 h = 1020

---

assay: AUC (0 to 24 hrs) in healthy human plasma at 200 mg, po every 12 hrs for 5 days; type: ADME, organism-based; parameters: dose 200 mg, time < 24 hr, route oral
Endpoint Name: AUC at 24 h (ng·h/mL)
Output spec: scalar in ng·h/mL, unitless text.

According to the records, this compound CCC(C)n1ncn(-c2ccc(N3CCN(c4ccc(OCC5COC(Cn6cncn6)(c6ccc(Cl)cc6Cl)O5)cc4)CC3)cc2)c1=O (stereo unspecified) [ITRACONAZOLE] displays AUC at 24 h of 34400

---

test: Ratio of Drug level in healthy human alveolar cell to drug level in healthy human plasma at 400 mg, po every 12 hrs for 7 days measured after 24 hrs of last dose; format: ADME, organism-based, Pneumocyte; settings: alveolar cells / plasma
Endpoint Name: Kp at 24 h
Output spec: single numeric token, no unit.

The compound listed as CC[C@@H]([C@H](C)O)n1ncn(-c2ccc(N3CCN(c4ccc(OC[C@@H]5CO[C@@](Cn6cncn6)(c6ccc(F)cc6F)C5)cc4)CC3)cc2)c1=O shows Kp at 24 h equal to 34.9
